Source: the supplement of paper PMC9694430

tested on: LOC_OS01G70970-cb002; assay: thermal shift delta Tm vs DMSO control; higher = stronger stabilization (binding); conditions: 12.5 µM; protein concentration 2 µM;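 also: purified Escherichia coli-expressed rice kinase domain construct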
measure_name: thermal shift delta Tm (°C)
Form entry: value (°C) — number only.

Record excerpt, results attached:
- line_notation: "C[C@@H](Oc1cc(-n2cnc3ccc(CN4CCN(C)CC4)cc32)sc1C(N)=O)c1ccccc1C(F)(F)F"
  meas_value: 0.44
- line_notation: "Cc1ccc(F)c(NC(=O)Nc2ccc(-c3cccc4[nH]nc(N)c34)cc2)c1"
  meas_value: 1.72
- line_notation: "C[C@@H](N)c1ccc(C(=O)Nc2ccnc3[nH]ccc23)cc1"
  meas_value: 0.39
- line_notation: "CCS(=O)(=O)c1cccc(-c2cc(C(=O)NC3CCN(C)CC3)c(C)c3[nH]c4ncc(C)cc4c23)c1"
  meas_value: 6.38
- line_notation: "CCc1nc(C(N)=O)c(Nc2ccc(N3CCC(N4CCN(C)CC4)CC3)c(OC)c2)nc1NC1CCOCC1"
  meas_value: 5.09

[in] Notebook: pull reported thermal shift delta Tm for LOC_OS01G70970-cb002, entry `N#CC[C@H](C1CCCC1)n1cc(-c2ncnc3[nH]ccc23)cn1`
[out] 0.28

[in] Fill in the recorded thermal shift delta Tm for this compound, with LOC_OS01G70970-cb002 as test system: `COc1cc(Nc2ncc3c(n2)-c2ccc(Cl)cc2C(c2c(F)cccc2OC)=NC3)ccc1C(=O)O`
[out] 0.83

###

test system: LOC_OS01G60330-cb001; assay: thermal shift delta Tm vs DMSO control; higher = stronger stabilization (binding); conditions: 12.5 µM; protein concentration 2 µM
measure_name: thermal shift delta Tm (°C)
Give a bare numeral; the unit °C is implied.

Below are worked cases with known answers.
- compound: "FC(F)(F)c1ccc(Nc2nc3ccc(Oc4ccnc(-c5ncc(C(F)(F)F)[nH]5)c4)cc3[nH]2)cc1 [Raf265 derivative]"
  display_unit: "°C"
  meas_value: 1.86
- compound: "CCCNC(=O)c1cn2ncnc(Nc3cc(C(=O)NC4CC4)ccc3C)c2c1C"
  display_unit: "°C"
  meas_value: 0.41

Note: attention shifts to another entry.
[in] Tell me the measured thermal shift delta Tm of `CC1(C)OCCn2c1nc1c(N3CCOCC3)nc(-c3cnc(N)nc3)nc12` , please.
[out] 5.04

###

system: LOC_OS07G06570-cb004; test: thermal shift delta Tm vs DMSO control; higher = stronger stabilization (binding); details: 12.5 µM; protein concentration 2 µM
Measured thermal shift delta Tm of individual entries
Numeric only. Scale: °C

// below: answered compounds
- line_notation: "C[C@@H]1CN(CC(=O)Nc2ccc3c(c2)Cc2cccc(-c4cc(=O)cc(N5CCOCC5)o4)c2S3)C[C@H](C)O1"
  measure_name: "thermal shift delta Tm"
  display_unit: "°C"
  meas_value: 1.02
- line_notation: "COCCOc1ccc2c(c1)ncn2-c1ccc2cccc(N3CCC(N)CC3)c2n1"
  measure_name: "thermal shift delta Tm"
  display_unit: "°C"
  meas_value: 1.03

Okay, now this compound:
[in] Given `CC(C)Oc1ccc(-c2nn([C@@H](C)c3oc4ccc(F)cc4c(=O)c3-c3cccc(F)c3)c3ncnc(N)c23)cc1F` , state its recorded thermal shift delta Tm.
[out] 1.08

###

test system: LOC_OS01G01410-cb001; experiment: thermal shift delta Tm vs DMSO control; higher = stronger stabilization (binding); conditions: 12.5 µM; protein concentration 2 µM
# label = true if thermal shift delta Tm >= 0.2 °C else false

Check out these entries, answers already filled in.
- molecule: "CCc1cccc(CC)c1NC(=O)N1Cc2[nH]nc(NC(=O)c3ccc(N4CCN(C)CC4)cc3)c2C1"
  class_name: "true"
- molecule: "CN(C)Cc1cccc(N/C(=C2\\C(=O)Nc3cc(C(N)=O)ccc32)c2ccccc2)c1"
  class_name: "false"
- molecule: "CCc1nc(-c2cccc(C)c2)c(-c2ccnc(NC(=O)c3ccccc3)c2)s1"
  class_name: "true"
- molecule: "CC1=C(C(=O)Nc2cc3cn[nH]c3cc2F)C(c2ccc(C(F)(F)F)cc2)CC(=O)N1 (configuration not stated)"
  class_name: "true"
- molecule: "CCOc1cc2ncc(C#N)c(Nc3ccc(F)c(Cl)c3)c2cc1NC(=O)/C=C/CN(C)C [Pelitinib (EKB-569)]"
  class_name: "true"

[in] Item `Cc1cc(Nc2cc(CN3CCOCC3)c3nc(C)c(Cc4ccc(Cl)cc4F)n3n2)n[nH]1` with thermal shift delta Tm of 0.2 °C or above?
[out] true

[in] Hi team, for `CCn1c(-c2nonc2N)nc2cnc(Oc3cccc(NC(=O)c4ccc(OCCN5CCOCC5)cc4)c3)cc21` , is the recorded thermal shift delta Tm at or above 0.2 °C?
[out] false
